Origin of the recorded values: patent US10947242B2

# Measurement Target: Human recombinant PDE2A (hPDE2A) (Homo sapiens, UniProt O00408)
# Construct: His tag (inferred from metal chelate purification); made in house; host or cells: Sf9 insect cells (baculovirus)
# Sequence (O00408 whole entry): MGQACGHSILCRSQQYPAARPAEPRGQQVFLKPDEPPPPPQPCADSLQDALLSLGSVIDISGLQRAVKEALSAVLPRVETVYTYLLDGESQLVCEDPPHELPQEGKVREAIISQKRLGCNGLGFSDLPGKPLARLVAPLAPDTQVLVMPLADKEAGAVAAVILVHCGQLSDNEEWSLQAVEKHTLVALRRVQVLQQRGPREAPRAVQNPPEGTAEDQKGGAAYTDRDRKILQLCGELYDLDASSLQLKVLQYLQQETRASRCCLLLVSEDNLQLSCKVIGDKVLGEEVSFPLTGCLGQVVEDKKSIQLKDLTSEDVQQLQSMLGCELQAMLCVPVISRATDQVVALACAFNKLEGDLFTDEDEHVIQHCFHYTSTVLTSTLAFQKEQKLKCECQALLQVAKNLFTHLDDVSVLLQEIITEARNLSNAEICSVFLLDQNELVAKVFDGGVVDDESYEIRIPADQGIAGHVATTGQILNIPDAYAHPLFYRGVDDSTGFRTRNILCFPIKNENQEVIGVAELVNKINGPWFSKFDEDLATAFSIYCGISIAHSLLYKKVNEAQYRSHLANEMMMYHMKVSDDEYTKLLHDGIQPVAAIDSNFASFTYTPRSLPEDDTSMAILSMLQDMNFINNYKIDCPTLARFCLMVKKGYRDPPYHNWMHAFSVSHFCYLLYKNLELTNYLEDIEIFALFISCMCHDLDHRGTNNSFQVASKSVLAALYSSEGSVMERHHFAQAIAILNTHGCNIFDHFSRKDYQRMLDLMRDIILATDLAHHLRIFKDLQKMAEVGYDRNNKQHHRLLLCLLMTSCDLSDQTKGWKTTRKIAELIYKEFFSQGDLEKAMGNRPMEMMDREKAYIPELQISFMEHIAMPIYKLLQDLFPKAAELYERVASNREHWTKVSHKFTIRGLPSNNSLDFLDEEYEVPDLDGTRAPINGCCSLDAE
# Measurement Description: In vitro assay PDE2A (SPA, 3H-cGMP hydrolysis)
# Assay type: biochemical
# Condition Context: read-out: hPDE2A Emax

Compound	Unit Label	Emax
C[C@@H]1CCN(C(=O)c2cnc(O)c(Cl)c2)C[C@H]1c1cc(C(F)F)nc2ncnn12 [Compound 173]	%	101
Cc1cc([C@@H]2CN(C(=O)c3ccnc(Cl)c3)CC[C@H]2C)n2ncnc2n1 [Compound 15]	%	100
O=C(c1cccc2ccccc12)N1[C@H]2CC[C@H](c3cc(C(F)F)nc4ncnn34)[C@@H]1CC2 [Compound 320]	%	100
Cc1cc([C@@H]2CN(C(=O)c3cc(C)c(Cl)c(C)c3)CC[C@H]2C)n2ncnc2n1 [Compound 109]	%	101
Cc1ccc(C(=O)N2CC[C@@H](C)[C@H](c3cc(C(F)F)nc4ncnn34)C2)nc1C [Compound 85]	%	100
C[C@@H]1CCN(C(=O)c2ccc(Br)cn2)C[C@H]1c1cc(C(F)F)nc2ncnn12 [Compound 153]	%	100
COc1ccc(C(=O)N2[C@H]3CC[C@H](c4cc(C(F)F)nc5ncnn45)[C@@H]2CC3)cc1OC [Compound 364]	%	101
C[C@@H]1CCN(C(=O)c2cc3c(nc2Cl)CCCC3)C[C@H]1c1cc(C(F)F)nc2ncnn12 [Compound 170]	%	100
COc1ccc(C(C)(C)C)cc1C(=O)N1CC[C@@H](C)[C@H](c2cc(C(F)F)nc3ncnn23)C1 [Compound 165]	%	100
O=C(c1cnc2ccccc2c1)N1[C@H]2CC[C@H](c3cc(C(F)F)nc4ncnn34)[C@@H]1CC2 [Compound 313]	%	97
C[C@@H]1CCN(C(=O)c2cc(Cl)ncc2F)C[C@H]1c1cc(C(F)F)nc2ncnn12 [Compound 54]	%	100
Cc1cc(C(=O)N2CC[C@@H](C)[C@H](c3cc(C(F)F)nc4ncnn34)C2)cc(OC(C)C)n1 [Compound 107]	%	100
C[C@@H]1CCN(C(=O)c2cnc(CF)cn2)C[C@H]1c1cc(C(F)F)nc2ncnn12 [Compound 255]	%	95
C[C@@H]1CCN(C(=O)c2cncnc2)C[C@H]1c1cc(C(F)F)nc2ncnn12 [Compound 249]	%	95
Cc1cc([C@@H]2CN(C(=O)c3cc(C)c(F)c(C)c3)CC[C@H]2C)n2ncnc2n1 [Compound 117]	%	100

---

# Measurement Target: Human recombinant PDE2A (hPDE2A) (Homo sapiens, UniProt O00408)
# Construct: His tag (inferred from metal chelate purification); made in house; host or cells: Sf9 insect cells (baculovirus)
# Measurement Description: In vitro assay PDE2A (SPA, 3H-cGMP hydrolysis)
# Format: biochemical
# Condition Context: human recombinant PDE2A, 10 μM cGMP substrate; read-out: hPDE2A pIC50 (converted)
Recorded IC50 values for a group of molecules are listed next.

Molecule	Unit Label	IC50
C[C@@H]1CCN(C(=O)c2cccc(C(F)(F)F)c2F)C[C@H]1c1cc(C(F)F)nc2ncnn12	nM	38.9
C[C@@H]1CCN(C(=O)c2cccc3c2OC(F)(F)O3)C[C@H]1c1cc(C(F)F)nc2ncnn12	nM	7.24
C[C@@H]1CCN(C(=O)c2ccc3c(ccn3CCF)c2)C[C@H]1c1cc(C(F)F)nc2ncnn12	nM	0.229
C[C@@H]1CCN(C(=O)c2cccc3c2ncn3C)C[C@H]1c1cc(C(F)F)nc2ncnn12	nM	13.5
C[C@@H]1CCN(C(=O)c2ccc3ncoc3c2)C[C@H]1c1cc(C(F)F)nc2ncnn12	nM	0.813
COc1c(C)cc(C(=O)N2CC[C@@H](C)[C@](F)(c3cc(C(F)F)nc4ncnn34)C2)cc1C	nM	30.2
Cc1cnc(C(F)(F)F)cc1C(=O)N1CC[C@@H](C)[C@H](c2cc(C(F)F)nc3ncnn23)C1	nM	13.8
Cc1nocc1C(=O)N1CC[C@@H](C)[C@H](c2cc(C(F)F)nc3ncnn23)C1	nM	28.2
C[C@@H]1CCN(C(=O)c2ccno2)C[C@H]1c1cc(C(F)F)nc2ncnn12	nM	132
C[C@@H]1CCN(C(=O)c2ccc(C(C)(C)C)o2)C[C@H]1c1cc(C(F)F)nc2ncnn12	nM	3.39
C[C@H]1CCN(C(=O)c2ccc3ncsc3c2)C[C@]1(F)c1cc(C(F)F)nc2ncnn12	nM	1950
CC(=O)N1CCc2cc(C(=O)N3CCC[C@@](C)(c4cc(C(F)F)nc5ncnn45)C3)ccc21 (single isomer, unassigned)	nM	955
Cc1nn(C)cc1C(=O)N1CCC[C@](C)(c2cc(C(F)F)nc3ncnn23)C1 (single isomer, unassigned)	nM	7940
Cc1nccc(C(=O)N2CC[C@@H](C)[C@H](c3cc(C(F)F)nc4ncnn34)C2)c1F	nM	6.31
C[C@@H]1CCN(C(=O)c2c[nH]c3ccc(F)cc23)C[C@H]1c1cc(C(F)F)nc2ncnn12	nM	1
Cc1cc([C@@H]2CN(C(=O)c3cc4c(nc3Cl)CCCC4)CC[C@H]2C)n2ncnc2n1	nM	21.4
CC1(c2cc(C(F)F)nc3ncnn23)CCCN(C(=O)c2ccc3occc3c2)C1 (stereo not drawn)	nM	646
Cc1csc2ccc(C(=O)N3CC[C@@H](C)[C@H](c4cc(C(F)F)nc5ncnn45)C3)nc12	nM	0.661
C[C@@H]1CCN(C(=O)c2cccc(C(C)(C)C#N)c2)C[C@H]1c1cc(C(F)F)nc2ncnn12	nM	4.9
C[C@@H]1CCN(C(=O)c2ccc(O)c(C#N)c2)C[C@H]1c1cc(C(F)F)nc2ncnn12	nM	1.35
C[C@@H]1CCN(C(=O)c2ccn(C)n2)C[C@H]1c1cc(C(F)F)nc2ncnn12	nM	28.8
Cc1cc([C@@H]2CN(C(=O)c3ccnc(Cl)c3F)CC[C@H]2C)n2ncnc2n1	nM	22.9
C[C@@H]1CCN(C(=O)c2ccc3scnc3c2)C[C@H]1c1cc(C(F)F)nc2ncnn12	nM	2.19
COc1cc(C(=O)N2CC[C@@H](C)[C@H](c3cc(C(F)F)nc4ncnn34)C2)ccc1C1CC1	nM	1.66
C[C@@H]1CCN(C(=O)c2ccc(F)c(C3CC3)c2)C[C@H]1c1cc(C(F)F)nc2ncnn12	nM	3.31
Cc1cc([C@@H]2CN(C(=O)c3cnc(Cl)c(Cl)c3)CC[C@H]2C)n2ncnc2n1	nM	4.9
Cc1csc(C(=O)N2CC[C@@H](C)[C@H](c3cc(C(F)F)nc4ncnn34)C2)c1	nM	2.09
C[C@@H]1CCN(C(=O)c2nc3ccccc3o2)C[C@H]1c1cc(C(F)F)nc2ncnn12	nM	2.51
C[C@]1(c2cc(C(F)F)nc3ncnn23)CCCN(C(=O)c2ccc3occc3c2)C1 (single isomer, unassigned)	nM	724
Cc1c(C(=O)N2[C@H]3CC[C@@H]2[C@H](c2cc(C(F)F)nc4ncnn24)CC3)oc2ccccc12	nM	29.5
